# Measurement Target: Cyclin-dependent kinase 5/CDK5 activator 1 (Homo sapiens)
# Sequence (Q00535 whole entry): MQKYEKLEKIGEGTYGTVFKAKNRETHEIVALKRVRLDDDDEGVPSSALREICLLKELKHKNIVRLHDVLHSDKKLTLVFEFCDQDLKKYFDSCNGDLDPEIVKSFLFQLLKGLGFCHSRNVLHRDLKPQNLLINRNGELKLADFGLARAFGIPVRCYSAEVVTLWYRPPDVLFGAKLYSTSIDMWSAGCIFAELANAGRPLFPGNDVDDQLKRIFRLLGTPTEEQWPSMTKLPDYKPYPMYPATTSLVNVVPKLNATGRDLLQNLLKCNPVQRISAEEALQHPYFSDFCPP
# Sequence (Q15078 whole entry, further chain): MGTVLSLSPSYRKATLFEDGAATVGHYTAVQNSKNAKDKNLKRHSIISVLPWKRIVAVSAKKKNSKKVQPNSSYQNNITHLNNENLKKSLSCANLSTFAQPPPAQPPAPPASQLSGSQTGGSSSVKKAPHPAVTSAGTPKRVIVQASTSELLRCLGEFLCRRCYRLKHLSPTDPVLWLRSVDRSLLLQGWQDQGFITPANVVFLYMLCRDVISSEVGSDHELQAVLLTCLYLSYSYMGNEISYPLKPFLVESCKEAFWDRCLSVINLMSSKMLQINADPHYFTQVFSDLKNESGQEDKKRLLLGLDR
# Experiment Notes: Inhibition of human recombinant CDK5/p25 using [gamma-33P]ATP after 30 mins by scintillation counting
pIC50: −log10 of the molar value.
Measured Metric: pIC50

Before answering, review these 5 worked examples.
In [3]: df
Out[3]:
                         compound_structure  reported_result
0      Cc1cccc2[nH]c3c(=O)oc4ccc(O)cc4c3c12           < 5.00
1      O=c1oc2ccc(O)cc2c2c1[nH]c1ccc(F)cc12             5.08
2   O=c1oc2cc(O)c(O)cc2c2c1[nH]c1ccc(O)cc12           < 5.00
3      O=c1oc2cc(O)ccc2c2c1[nH]c1cc(O)ccc12             5.00
4  O=c1oc2ccc(O)cc2c2c1[nH]c1ccc(C(F)(F)F)cc12           ≤ 5.00

Lab book: pIC50 of CCCOc1cccc2[nH]c3c(=O)oc4ccc(O)cc4c3c12 noted as < 5.00

The molecule O=c1oc2ccc(O)cc2c2c1[nH]c1cc3c(cc12)OCO3 showed pIC50 equal to 4.80

The recorded pIC50 for O=c1oc2ccc(O)cc2c2c1[nH]c1cccc(C(F)(F)F)c12 is < 5.00

Entry Cc1ccc2c(c1)[nH]c1c(=O)oc3ccc(O)cc3c12 ; pIC50 = < 5.00

What the record says about O=c1oc2ccccc2c2c1[nH]c1ccccc12 : pIC50 is < 5.00

Each recorded value in this set is attributed to ChEMBL document CHEMBL1944600.
